Documented Cmax across a set of molecules
assay: Dog 28-day toxicokinetics; assay type: in vivo; conditions: both sexes, beagle, plasma, po, 800 mg/kg/day, 800 mg/kg/day po, day 1
quantity: Cmax (ng/mL)

- CSc1ccc(OCc2ncc([N+](=O)[O-])n2C)cc1: 140
- Cn1c([N+](=O)[O-])cnc1COc1ccc([S+](C)[O-])cc1 (stereo not drawn) [Fexinidazole sulfoxide]: 14500
- Cn1c([N+](=O)[O-])cnc1COc1ccc(S(C)(=O)=O)cc1: 36100

----------
Documented AUC(0-t) across a set of compounds
assay: Rat 28-day toxicokinetics; type: in vivo; conditions: male, Sprague Dawley (Crl:CD (SD)IGS BR), plasma, po, 800 mg/kg, Day 1, male, read-out: AUC0-t(last)
quantity: AUC(0-t) (µg·h/mL)

- Cn1c([N+](=O)[O-])cnc1COc1ccc([S+](C)[O-])cc1 (stereo not drawn) [Fexinidazole sulfoxide]: 366
- Cn1c([N+](=O)[O-])cnc1COc1ccc(S(C)(=O)=O)cc1 [Fexinidazole sulfone]: 465
- CSc1ccc(OCc2ncc([N+](=O)[O-])n2C)cc1 [Fexinidazole]: 10
